Provide the reported pIC50 of each item.
# Target entity: REC20 serotonin receptor (5-HT6) (Rattus norvegicus)
# Construct: encodes a putative protein of 435 amino acids; expressed in transfected cells; host or cells: CosM6 (subclone of COS-7), transient, vector pCMV4
# Sequence (P32305 1-435): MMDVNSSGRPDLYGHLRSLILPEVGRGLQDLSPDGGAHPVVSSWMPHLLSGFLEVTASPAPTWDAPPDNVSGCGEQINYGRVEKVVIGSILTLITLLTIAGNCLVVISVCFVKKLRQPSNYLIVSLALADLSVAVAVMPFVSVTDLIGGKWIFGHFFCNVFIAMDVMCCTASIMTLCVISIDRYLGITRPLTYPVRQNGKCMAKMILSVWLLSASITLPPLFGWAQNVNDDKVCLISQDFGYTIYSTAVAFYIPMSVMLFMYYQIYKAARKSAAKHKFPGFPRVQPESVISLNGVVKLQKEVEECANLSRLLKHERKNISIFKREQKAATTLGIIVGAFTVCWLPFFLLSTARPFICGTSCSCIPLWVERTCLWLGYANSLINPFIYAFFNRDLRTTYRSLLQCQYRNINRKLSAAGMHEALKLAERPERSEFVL
# Protocol details: [125I]-LSD competition binding to membranes of CosM6 cells expressing REC20
As a rule, pIC50 stands for the negative log10 of the concentration, concentration in M.

What pIC50 value was documented for this molecule, CC[C@@H](CO)NC(=O)[C@@H]1C=C2c3cccc4c3c(cn4C)C[C@H]2N(C)C1 [Methysergide] ?
7.49

Which measured pIC50 value corresponds to CN1C[C@H](C(=O)N[C@]2(C)O[C@@]3(O)[C@@H]4CCCN4C(=O)[C@H](Cc4ccccc4)N3C2=O)C=C2c3cccc4[nH]cc(c34)C[C@H]21 [Ergotamine] ?
7.48

Source: patent US5968817A
